# assay.info: Colorimetric alkylation rate constant assay with TNB^2− as non-specific thiol
# Format: physicochemical
# assay.conditions: Replicate 3, 2168 sec, [B]0=250; in µM
observation.type: remaining [B]

**Query** Note remaining [B] for the compound shown: O=C(CCl)N1CCOCC1 [Compound C4]
**Result** 237.513

**Query** Note remaining [B] for the compound shown: COc1cc2sc(C(=O)CCC(=O)O)cc2cc1NC(=O)CCl [Compound E2]
**Result** 240.008

**Query** Note remaining [B] for the compound shown: O=C(CCl)Nc1ccccc1C(=O)O [Compound C5]
**Result** 244.986

**Query** Note remaining [B] for the compound shown: O=C(CCl)Nc1ccc(F)cc1 [Compound C3]
**Result** 242.333

**Query** Note remaining [B] for the compound shown: O=C(CCl)Nc1ccccc1 [Compound C2]
**Result** 242.61

**Query** Note remaining [B] for the compound shown: C=CS(=O)(=O)Nc1cc2cc(C(=O)CCC(=O)O)sc2cc1OC [Compound E1]
**Result** 244.563

====

# assay.info: Colorimetric alkylation rate constant assay with TNB^2− as non-specific thiol
# Assay type: physicochemical
# assay.conditions: Replicate 3, 1084 sec, [B]0=250; in µM
observation.type: remaining [B]

**Query** Note remaining [B] for the compound shown: C=CS(=O)(=O)Nc1cc2cc(C(=O)CCC(=O)O)sc2cc1OC [Compound E1]
**Result** 247.373

**Query** Note remaining [B] for the compound shown: O=C(CCl)Nc1ccccc1
**Result** 244.475

**Query** Note remaining [B] for the compound shown: COc1cc2sc(C(=O)CCC(=O)O)cc2cc1NC(=O)CCl [Compound E2]
**Result** 241.659

**Query** Note remaining [B] for the compound shown: O=C(CCl)Nc1ccc(F)cc1
**Result** 244.173

**Query** Note remaining [B] for the compound shown: O=C(CCl)N1CCOCC1
**Result** 241.558

**Query** Note remaining [B] for the compound shown: O=C(CCl)Nc1ccccc1C(=O)O
**Result** 245.427

====

# assay.info: Colorimetric alkylation rate constant assay with TNB^2− as non-specific thiol
# Type: physicochemical
# assay.conditions: Replicate 2, 1445 sec, [B]0=250; in µM
observation.type: remaining [B]

**Query** Note remaining [B] for the compound shown: O=C(CCl)Nc1ccccc1C(=O)O [Compound C5]
**Result** 245.168

**Query** Note remaining [B] for the compound shown: O=C(CCl)Nc1ccccc1 [Compound C2]
**Result** 243.737

**Query** Note remaining [B] for the compound shown: O=C(CCl)Nc1ccc(F)cc1 [Compound C3]
**Result** 243.259

**Query** Note remaining [B] for the compound shown: COc1cc2sc(C(=O)CCC(=O)O)cc2cc1NC(=O)CCl [Compound E2]
**Result** 242.169

**Query** Note remaining [B] for the compound shown: O=C(CCl)N1CCOCC1 [Compound C4]
**Result** 238.754

**Query** Note remaining [B] for the compound shown: C=CS(=O)(=O)Nc1cc2cc(C(=O)CCC(=O)O)sc2cc1OC [Compound E1]
**Result** 245.88

====

# Tested on: THP-1 Lucia ISG cells (interferon pathway)
# assay.info: Potency test of purified dimers on THP-1 Lucia ISG reporter cells
# Format: cell-based, human
# assay.conditions: Homo sapiens, THP1-Lucia ISG, 24 h, Concentration 4.57247 nM; three replicates; read-out: Processed reporter response per replicate (reading relative to DMSO)
observation.type: fold induction at 0.00457247 µM
Enter a number only.

**Query** Note fold induction at 0.00457247 µM for the compound shown: COc1cc2sc(C(=O)CCC(=O)O)cc2cc1SCCCSc1cc2cc(C(=O)CCC(=O)O)sc2cc1OC
**Result** 1.33

Next:
**Query** Note fold induction at 0.00457247 µM for the compound shown: COc1cc2sc(C(=O)CCC(=O)O)cc2cc1CSc1cc2cc(C(=O)CCC(=O)O)sc2cc1OC [Compound D2]
**Result** 1.47

**Query** Note fold induction at 0.00457247 µM for the compound shown: COc1cc2sc(C(=O)CCC(=O)O)cc2cc1Sc1cc2cc(C(=O)CCC(=O)O)sc2cc1OC [Compound D1]
**Result** 1.37

**Query** Note fold induction at 0.00457247 µM for the compound shown: COc1cc2sc(C(=O)CCC(=O)O)cc2cc1CSCc1cc2cc(C(=O)CCC(=O)O)sc2cc1OC
**Result** 1.07

**Query** Note fold induction at 0.00457247 µM for the compound shown: COc1cc2sc(C(=O)CCC(=O)O)cc2cc1CCCSc1cc2cc(C(=O)CCC(=O)O)sc2cc1OC
**Result** 1.13
